B1: ESRRA (parent)
chain: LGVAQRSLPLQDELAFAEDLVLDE

Variants of: B1
Experiment: protein stability index of a GFP-peptide fusion (GPS, HEK-293T) (PSI 1-6); higher = more stable;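 further: lentivirally expressed fusions sorted by FACS into six bins by GFP to DsRed ratio, PSI derived from sequencing read proportions per bin multiplied by bin number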
Conditions: c terminus: a fixed tail appended
Kind request: treat 3 as inclusive, so protein stability index at 3 or higher is Satisfied, anything lower is Not satisfied.

• A4G = Not satisfied
• L8W = Satisfied
• V3H = Not satisfied
• Q11H = Satisfied
• Q11Y = Satisfied
• A4T = Not satisfied
• A15R = Not satisfied
• V3S = Not satisfied
• E13N = Satisfied
• L1K = Not satisfied
• D12P = Satisfied
• D12C = Not satisfied
• D12I = Not satisfied
• Q11L = Satisfied
• E18I = Not satisfied
• L22I = Satisfied
• E13K = Satisfied
• A17L = Satisfied
• D12H = Not satisfied
• Q5T = Not satisfied
• A15N = Satisfied
• D23F = Satisfied
• S7R = Not satisfied
• P9G = Not satisfied
• E13I = Not satisfied
• A4C = Not satisfied
• L20E = Satisfied
• L1V = Not satisfied
• V21H = Satisfied
• L8V = Satisfied
• V21C = Satisfied
• L22S = Satisfied
• D19N = Not satisfied
• V3G = Satisfied
• L20I = Satisfied
• L20R = Satisfied
• L20K = Satisfied
• E24V = Not satisfied
• Q5H = Not satisfied
• F16P = Satisfied
• A17F = Satisfied
• D12L = Not satisfied
• L8P = Satisfied
• E24A = Not satisfied
• E18W = Satisfied
• A17M = Satisfied
• V21G = Satisfied
• A4K = Not satisfied
• D12N = Satisfied
• L14H = Satisfied
• S7E = Not satisfied
• L10M = Satisfied
• G2Y = Not satisfied
• V21W = Satisfied
• Q11D = Satisfied
• V21T = Satisfied
• L14A = Satisfied
• A15Q = Satisfied
• R6L = Not satisfied
• S7T = Satisfied
• P9I = Not satisfied
• A15W = Satisfied
• L1G = Satisfied
• E18K = Satisfied
• L1N = Not satisfied
• L10A = Satisfied
• Q5W = Not satisfied
• E18Y = Satisfied
• D12V = Not satisfied
• L10N = Satisfied
• L10R = Satisfied
• V21A = Satisfied
• D19H = Not satisfied
